- test.parameters: Ebola virus entry assay, ratio channel readout
Active and inactive are the calls of the source. Calls follow the shape of the full dose curve.
Could you please pick one outcome from this set? active, inactive

I would be grateful if you could indicate the recorded call for CN1CCN(C(=O)O[C@H]2c3nccnc3C(=O)N2c2ccc(Cl)cn2)CC1 .
inactive

One more molecule: OCCOCCN1CCN(C(c2ccccc2)c2ccc(Cl)cc2)CC1 (stereo not given)
inactive

Item: N[C@@H]1C[C@H]1c1ccccc1
inactive

Now try O=C1c2cccc3c2[C@H](CCC3)CN1[C@@H]1CN2CCC1CC2 .
inactive

# iterate: CCC(C)n1ncn(-c2ccc(N3CCN(c4ccc(OC[C@H]5CO[C@](Cn6cncn6)(c6ccc(Cl)cc6Cl)O5)cc4)CC3)cc2)c1=O (stereo not given in full)
active
